Every entry's value here was drawn from ChEMBL document CHEMBL1158200.

# experimentalDetails: Cytotoxicity against african green monkey Vero cells
# Format: cell-based
# experimentalSetup: chlorocebus sabaeus, read-out: ED50 (the source's name)
CC50 reference
Write the value in µg/mL as a bare number.

1. CCCCCCCCCCCCCCC(O)C(O)CC[C@H](O)[C@H]1CC[C@H](CCCCC[C@@H](O)CC2=C[C@H](C)OC2=O)O1 (stereo partly specified) [GIGANTETRONENIN] ... 0.0057
2. CCCCCCCCCCCC[C@H](O)[C@@H](O)CC/C=C\CC/C=C\CCC(O)CCCCCC(O)CC1=CC(C)OC1=O (stereo partly specified) [CORIADIENIN] ... 0.15
3. CCCCCCCCCCCC[C@H](O)[C@@H](O)CC/C=C\CC[C@@H](O)[C@H]1CCC(CCCCCC(O)CC2=CC(C)OC2=O)O1 (stereo partly specified) [CORIACIN] ... 0.0057

Exam item: Consider the molecule shown here: CCCCCCCCCCCC[C@H](O)[C@@H](O)CC/C=C\CC[C@@H](O)[C@H]1CCC(CCCCCCCC2=CC(C)OC2=O)O1 (stereo partly specified) What is its recorded CC50?
Marked response: 0.05

Exam item: Consider the molecule shown here: CCCCCCCCCCCC[C@H](O)[C@@H](O)CCC1OC1CCC1OC1CCC(O)CCCCCC(O)CC1=CC(C)OC1=O (stereo partly specified) [BISEPOXYCORIADIENIN] What is its recorded CC50?
Marked response: 0.013
